B1: TRAF3IP2 (parent)
chain: PGQPLPGASVRGLHPVQKVILNYP

Variants of: B1
ASSAY_EXPLANATION: protein stability index of a GFP-peptide fusion (GPS, HEK-293T) (PSI 1-6); higher = more stable;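 further: lentivirally expressed fusions sorted by FACS into six bins by GFP to DsRed ratio, PSI derived from sequencing read proportions per bin multiplied by bin number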
CONDITIONS_USED: c terminus: a fixed tail appended
Quick rule: protein stability index of at least 3 means MET, below that means NOT MET.

Qu. Reported protein stability index at or above 3? PGQPLPGASVRGLHPVQKMILNYP [V19M]
Ans. NOT MET

Qu. Check PGQPLPGASVEGLHPVQKVILNYP [R11E] too.
Ans. MET

Qu. Check PGQPLPGASLRGLHPVQKVILNYP [V10L] too.
Ans. NOT MET

Qu. Check PGQPLPGASVRGLHPVQKVILNSP [Y23S] too.
Ans. MET

Qu. Check PGQPLPGASWRGLHPVQKVILNYP [V10W] too.
Ans. NOT MET

Qu. Check PGQPLPGASVRGLHPVQKVILNFP [Y23F] too.
Ans. MET

Qu. Check PGQPLPGASARGLHPVQKVILNYP [V10A] too.
Ans. MET

Qu. Check PGQPLPGASVRGAHPVQKVILNYP [L13A] too.
Ans. MET

Qu. Check PGQPLPGASVRGLHPMQKVILNYP [V16M] too.
Ans. NOT MET

Qu. Check PGQPLPGASVRGLCPVQKVILNYP [H14C] too.
Ans. MET

Qu. Check PGQPPPGASVRGLHPVQKVILNYP [L5P] too.
Ans. MET

Qu. Check PGQPLPGASVRGLHPVQKVILNLP [Y23L] too.
Ans. NOT MET

Qu. Check PGQPLPGASVRGLHPVQKVILNNP [Y23N] too.
Ans. MET

Qu. Check PGQPLPGCSVRGLHPVQKVILNYP [A8C] too.
Ans. NOT MET

Qu. Check PGQPLPGASVRGLHMVQKVILNYP [P15M] too.
Ans. NOT MET

Qu. Check PGQPLPGAVVRGLHPVQKVILNYP [S9V] too.
Ans. MET

Qu. Check PGQPLPGASVRGLHPVQAVILNYP [K18A] too.
Ans. NOT MET

Qu. Check PCQPLPGASVRGLHPVQKVILNYP [G2C] too.
Ans. NOT MET

Qu. Check PGQPLPGASVRGNHPVQKVILNYP [L13N] too.
Ans. MET

Qu. Check WGQPLPGASVRGLHPVQKVILNYP [P1W] too.
Ans. NOT MET

Qu. Check PAQPLPGASVRGLHPVQKVILNYP [G2A] too.
Ans. NOT MET

Qu. Check PGQPLPGASVRGLHPVQKVILNWP [Y23W] too.
Ans. NOT MET

Qu. Check PGQPLPGASVRGLTPVQKVILNYP [H14T] too.
Ans. MET

Qu. Check PGQPLPGASVRGLHPVWKVILNYP [Q17W] too.
Ans. NOT MET

Qu. Check PGQPLPGASVRGLHPVQKVNLNYP [I20N] too.
Ans. MET

Qu. Check PGQPLPGASVRGLHPVQKVIRNYP [L21R] too.
Ans. NOT MET

Qu. Check PGQPLPGASVRELHPVQKVILNYP [G12E] too.
Ans. MET

Qu. Check PGQPLPGASVRGLHPVQKVILDYP [N22D] too.
Ans. MET

Qu. Check CGQPLPGASVRGLHPVQKVILNYP [P1C] too.
Ans. NOT MET

Qu. Check PGHPLPGASVRGLHPVQKVILNYP [Q3H] too.
Ans. NOT MET

Qu. Check PGQPLPGASVRGTHPVQKVILNYP [L13T] too.
Ans. MET

Qu. Check PGQPLPGASVRGLFPVQKVILNYP [H14F] too.
Ans. NOT MET

Qu. Check PGQPLPGASVRGLHPVQVVILNYP [K18V] too.
Ans. NOT MET

Qu. Check PGQTLPGASVRGLHPVQKVILNYP [P4T] too.
Ans. MET

Qu. Check PGQPLPGASVRGLHPSQKVILNYP [V16S] too.
Ans. MET

Qu. Check PGQPLPGASVCGLHPVQKVILNYP [R11C] too.
Ans. MET

Qu. Check PGQPLPGASVRILHPVQKVILNYP [G12I] too.
Ans. NOT MET

Qu. Check PGQPLPGASVRGLHPVQKVDLNYP [I20D] too.
Ans. MET

Qu. Check PGQPLPGASVRGLHPWQKVILNYP [V16W] too.
Ans. NOT MET

Qu. Check PGQPLPGASVRGLHPVQKQILNYP [V19Q] too.
Ans. MET
